Test system: HCV pseudoparticles, genotype 1a HCV E1 and E2 envelope (H77C isolate)
method: HCV pseudoparticle infection assay (luciferase reporter, Huh7 cells)
Format: cell-based, HCV genotype 1a (H77C)
test_parameters: Hepatitis C virus, Huh-7, 48 h, read-out: EC50 (nM) 1a (H77C), HCV pseudoparticle entry into Huh7 cells, luciferase 2 days after infection, average of duplicates
Cut-off 0.9 nM on EC50: below means 1, at or above means -1.

>>> assigned_label("CC1(C)CNC(=O)c2ccc(cc2)Nc2nc(nc(OCC(F)(F)F)n2)NCc2ccc(c(Cl)c2)OCCCN(C(=O)c2ccccc2)C1 [Example 1001]")
1
>>> assigned_label("CC(C)[C@@H]1CC[C@@H](C)C[C@H]1OC(=O)N1CCCOc2ccc(cc2Cl)CNc2nc(nc(OCC(F)(F)F)n2)Nc2ccc(cc2)C(=O)NCC(C)(C)C1 [Example 2005]")
-1

Next compound, please.
Incoming: Take the compound CC1(C)CNC(=O)c2ccc(cc2)Nc2nc(nc(OCC(F)(F)F)n2)NCc2ccc(c(Cl)c2)OCCCN(C(=O)CC(C)(C)n2cccc2)C1 [Example 1015] and say whether its EC50 is less than 0.9 nM.
Outgoing: -1

* * *

The following compounds are shown together with reported log10(EC50) values.
System: HCV pseudoparticles, genotype 1a HCV E1 and E2 envelope (H77C isolate)
method: HCV pseudoparticle infection assay (luciferase reporter, Huh7 cells)
Assay type: cell-based, HCV genotype 1a (H77C)
test_parameters: Hepatitis C virus, Huh-7, 48 h, read-out: EC50 (nM) 1a (H77C), HCV pseudoparticle entry into Huh7 cells, luciferase 2 days after infection, average of duplicates
Heads up, the numbers here are log10 of EC50 in nM units.

Here's what some known entries look like.
>>> numeric_readout("Cc1oc(=O)oc1CN1CCCOc2ccc(cc2Cl)CNc2nc(nc(OCC(F)(F)F)n2)Nc2ccc(cc2)C(=O)NCC(C)(C)C1")
0.88
>>> numeric_readout("CC1(C)CNC(=O)c2ccc(cc2)Nc2nc(nc(OCC(F)(F)F)n2)NCc2ccc(c(Cl)c2)OCCCN(S(=O)(=O)/C=C/c2ccccc2)C1")
-0.26
>>> numeric_readout("Cc1oc(=O)oc1COC(=O)N1CCCOc2ccc(cc2Cl)CNc2nc(nc(OCc3ccc(C(C)C)cc3)n2)Nc2ccc(cc2)C(=O)NCC(C)(C)C1")
-0.96
>>> numeric_readout("CC1(C)CNC(=O)c2ccc(cc2)Nc2nc(nc(OCC(F)(F)F)n2)NCc2ccc(c(Cl)c2)OCCCN(C(=O)CCC(=O)O)C1")
1.38

Here is the next item to consider.
Incoming: Return log10(EC50) for the following compound: CC1(C)CNC(=O)c2ccc(cc2)Nc2nc(nc(OCC(F)(F)F)n2)NCc2ccc(c(Cl)c2)OCCCN(C(=O)/C=C/c2ccccc2)C1
Outgoing: 0.18
